Experimental Target: cGMP-dependent protein kinase (Eimeria tenella)
Sequence (Q8MMZ8 whole entry): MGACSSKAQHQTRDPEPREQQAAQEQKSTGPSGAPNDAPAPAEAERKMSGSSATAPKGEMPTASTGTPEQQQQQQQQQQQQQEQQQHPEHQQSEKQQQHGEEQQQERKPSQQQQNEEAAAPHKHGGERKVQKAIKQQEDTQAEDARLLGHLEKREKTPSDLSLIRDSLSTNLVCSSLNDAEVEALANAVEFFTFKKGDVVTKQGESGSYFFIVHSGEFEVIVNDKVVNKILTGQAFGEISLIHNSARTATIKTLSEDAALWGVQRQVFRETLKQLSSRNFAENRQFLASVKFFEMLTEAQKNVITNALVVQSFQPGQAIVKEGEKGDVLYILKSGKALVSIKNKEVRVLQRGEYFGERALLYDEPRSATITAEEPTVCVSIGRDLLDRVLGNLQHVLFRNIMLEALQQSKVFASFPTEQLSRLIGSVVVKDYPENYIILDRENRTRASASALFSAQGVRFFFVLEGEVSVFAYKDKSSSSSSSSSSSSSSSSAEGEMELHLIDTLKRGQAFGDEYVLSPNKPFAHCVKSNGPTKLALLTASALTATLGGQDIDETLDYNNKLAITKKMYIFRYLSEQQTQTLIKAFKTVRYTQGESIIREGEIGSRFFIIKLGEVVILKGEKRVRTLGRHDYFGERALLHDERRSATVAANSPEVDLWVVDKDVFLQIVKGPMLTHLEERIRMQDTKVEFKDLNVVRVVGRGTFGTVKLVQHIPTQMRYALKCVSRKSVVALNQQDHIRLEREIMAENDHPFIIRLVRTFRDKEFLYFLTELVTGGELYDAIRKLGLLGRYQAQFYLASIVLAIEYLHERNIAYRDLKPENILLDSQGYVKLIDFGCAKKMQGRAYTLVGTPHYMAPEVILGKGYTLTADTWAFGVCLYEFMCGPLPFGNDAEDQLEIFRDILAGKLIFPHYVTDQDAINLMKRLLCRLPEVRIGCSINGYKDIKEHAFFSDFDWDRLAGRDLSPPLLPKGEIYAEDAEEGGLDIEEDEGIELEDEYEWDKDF
pIC50: −log10 of the molar value.
Value Type: pIC50

Worked examples, 3 compounds total:
compound=OC[C@@H]1CCN1CCN1CCC(c2cc(-c3ccncc3)c(-c3ccc(F)cc3)[nH]2)CC1 value_reported=8.77
compound="CN1CCN(C)C(CN2CCC(c3cc(-c4ccncc4)c(-c4ccc(F)cc4)[nH]3)CC2)C1 (stereo unspecified)" value_reported=8.97
compound="O=C(C1CNCCO1)N1CCC(c2cc(-c3ccncc3)c(-c3ccc(F)cc3)[nH]2)CC1 (stereo unspecified)" value_reported=9.57

I. COC(=O)N1CCOC(CN2CCC(c3cc(-c4ccncc4)c(-c4ccc(F)cc4)[nH]3)CC2)C1 (stereo unspecified)
II. CC(=O)N1CCN(C(C)=O)C(CN2CCC(c3cc(-c4ccncc4)c(-c4ccc(F)cc4)[nH]3)CC2)C1 (stereo unspecified)
-- ask Pick one: I or II . Which has the bigger pIC50 number? Your answer should be the label attached to the chosen record.
-- reply I
(I: 8.99, II: 8.66)
